Sourced from ChEMBL document CHEMBL3396996

- Tested on: Pseudomonas aeruginosa PA14
- assay_text: Inhibition of Pseudomonas aeruginosa PA14 PqsH transposon mutant assessed as extracellular level of HHQ after 16 hrs
Would you mind telling me the reported Activity of each entry?
Answers are plain numbers, in µM.

Field: example entries. Status: answers known.
>  <compound>
COC(=O)CCCc1ccc(O)c(O)c1

>  <tested_system>
Pseudomonas aeruginosa PA14

>  <unit_info>
µM

>  <Activity>
18

$$$$
>  <compound>
CCOC(=O)CCc1ccc(O)c(O)c1

>  <tested_system>
Pseudomonas aeruginosa PA14

>  <unit_info>
µM

>  <Activity>
17

$$$$
>  <compound>
COC(=O)Cc1ccc(O)c(O)c1

>  <tested_system>
Pseudomonas aeruginosa PA14

>  <unit_info>
µM

>  <Activity>
24

$$$$

// for each compound in input: emit Activity
1. COC(=O)/C=C/c1ccc(O)c(O)c1 [METHYLCAFFEATE]
2. COC(=O)CCc1ccc(O)c(O)c1
3. CC(C)OC(=O)CCc1ccc(O)c(O)c1

# output
[31, 17, 16]
